assayProcedure: Plasma and urine pharmacokinetics of napabucasin in patients
Format: in vivo, Japanese patients
cond: human, plasma, oral, 480 mg, plasma, Cycle 1 (Day 1), Cohort 2 (960 mg/day, 480 mg BID), n = 4; read-out: t1/2, range

{"smilesRecord": "CC(=O)c1cc2c(o1)C(=O)c1ccccc1C2=O", "half-life": "7 to 8 h"}

====

assayProcedure: Plasma and urine pharmacokinetics of napabucasin in patients
Format: in vivo, Japanese patients
cond: human, plasma, oral, 480 mg, plasma, Cycle 2 (Day 29), Cohort 2 (960 mg/day, 480 mg BID), n = 3; read-out: AUC0–24, range
observable: AUC(0-t)

{"compound": "CC(=O)c1cc2c(o1)C(=O)c1ccccc1C2=O [napabucasin]", "assayValue": "2750 to 2880 ng·h/mL"}
